# Subject of test: recombinant human kappa (KOR) opioid receptor (Homo sapiens, UniProt P41145)
# Experiment summary: Competitive radioligand binding at KOR ([3H]diprenorphine), CHO-K1 membranes
Measurement name: IC50 (nM)
Answers are plain numbers, in nM.

>>> print(df.to_string())
                                   molecule                           subject_of_test  measurement_name  unit_symbol  assay_value
0  CN([C@H](CN1CC[C@H](O)C1)c1ccc(OCCO)cc1)S(=O)(=O)Cc1ccc(C(F)(F)F)cc1 [Example 23]  recombinant human kappa (KOR) opioid receptor (Homo sapiens, UniProt P41145)              IC50           nM         1080

Provide reported IC50 for each item, in the same order as listed.
1. CN(C(=O)Cc1nccs1)[C@H](CN1CC[C@H](O)C1)c1ccc(OCCO)cc1 [Example 18]
2. CN(C(=O)Cc1ccc(F)c(F)c1)[C@H](CN1CC[C@H](OCCO)C1)c1ccc(OCCO)cc1 [Example 21]

Result:
1. 135
2. 1450

====

Kindly supply the reported Ki values for the records listed here.
# Subject of test: recombinant human kappa (KOR) opioid receptor (Homo sapiens, UniProt P41145)
# Experiment summary: Competitive radioligand binding at KOR ([3H]diprenorphine), CHO-K1 membranes
# Condition summary: Cheng Prusoff correction using experimental Kd of radioligand; read-out: Kappa Opioid Receptor Ki
Answers are plain numbers, in nM.

// known answers, use as guide
>>> print(df.to_string())
                                   compound                           subject_of_test  assay_value
0  CN([C@H](CN1CC[C@H](O)C1)c1ccc(OCCO)cc1)S(=O)(=O)Cc1ccc(Cl)c(Cl)c1  recombinant human kappa (KOR) opioid receptor (Homo sapiens, UniProt P41145)         32.2
1  CN(C(=O)Cc1ccc(Cl)c(Cl)c1)[C@H](CN1CC(O)C1)c1ccc(OCCO)cc1  recombinant human kappa (KOR) opioid receptor (Homo sapiens, UniProt P41145)         2.71
2  CN(C(=O)Cc1ccc(Cl)c(Cl)c1)[C@H](CN1CCCC1)c1cccc(NS(=O)(=O)c2ccc(Cl)nc2)c1  recombinant human kappa (KOR) opioid receptor (Homo sapiens, UniProt P41145)         0.36
3  CN(C(=O)Cc1nccs1)[C@H](CN1CC[C@H](O)C1)c1ccc(OCCO)cc1  recombinant human kappa (KOR) opioid receptor (Homo sapiens, UniProt P41145)         17.6

For reference, reported Ki for CC(O)CS(=O)(=O)Nc1cccc([C@@H](CN2CCCC2)N(C)C(=O)C(c2ccccc2)c2ccccc2)c1 (some centres unmarked) stands at 48.8
